Origin of measurements: ChEMBL document CHEMBL1153568

system: Mus musculus; experiment: Anticonvulsant activity in ip dosed Kunming mouse assessed as protection against maximal electroshock-induced seizures; type: functional
ED50 less than 50 mg/kg is Satisfied; ED50 greater than or equal to 50 mg/kg is Not satisfied.

{"compound": "O=C(/C=C/c1ccc(F)cc1)NCCO", "tested system": "Mus musculus", "assigned category": "Satisfied"}
{"compound": "O=C(/C=C/c1ccc2c(c1)OCO2)NCCO", "tested system": "Mus musculus", "assigned category": "Satisfied"}
{"compound": "CN(C)c1ccc(/C=C/C(=O)NCCO)cc1", "tested system": "Mus musculus", "assigned category": "Not satisfied"}
{"compound": "NC(=O)N1c2ccccc2C=Cc2ccccc21 [CARBAMAZEPINE]", "tested system": "Mus musculus", "assigned category": "Satisfied"}
{"compound": "O=C(/C=C/c1ccccc1F)NCCO", "tested system": "Mus musculus", "assigned category": "Satisfied"}
{"compound": "O=C(/C=C/c1ccc(Br)cc1)NCCO", "tested system": "Mus musculus", "assigned category": "Not satisfied"}
{"compound": "O=C(/C=C/c1ccc(Cl)cc1)NCCO", "tested system": "Mus musculus", "assigned category": "Not satisfied"}
{"compound": "O=C(/C=C/c1ccccc1Br)NCCO", "tested system": "Mus musculus", "assigned category": "Not satisfied"}
{"compound": "O=C(/C=C/c1ccccc1Cl)NCCO", "tested system": "Mus musculus", "assigned category": "Not satisfied"}
{"compound": "O=C(/C=C/c1cccc(Cl)c1)NCCO", "tested system": "Mus musculus", "assigned category": "Satisfied"}
{"compound": "O=C(/C=C/c1cccc(F)c1)NCCO", "tested system": "Mus musculus", "assigned category": "Satisfied"}
{"compound": "O=C(/C=C/c1ccccc1)NCCO [IDROCILAMIDE]", "tested system": "Mus musculus", "assigned category": "Satisfied"}

---

test system: Mus musculus; experiment: Protective index, ratio of TD50 for neurotoxicity to ED50 for anticonvulsant activity in ip dosed Kunming mouse; assay type: functional
// map Ratio TD50/ED50 to label using interval 1 = under 3, interval 2 = from 3 up to 5, interval 3 = 5 and over

{"compound": "O=C(/C=C/c1ccc(Cl)cc1)NCCO", "assigned category": "interval 1"}
{"compound": "O=C(/C=C/c1ccc(Br)cc1)NCCO", "assigned category": "interval 1"}
{"compound": "O=C(/C=C/c1ccc2c(c1)OCO2)NCCO", "assigned category": "interval 2"}
{"compound": "O=C(/C=C/c1ccccc1)NCCO [IDROCILAMIDE]", "assigned category": "interval 3"}
{"compound": "CN(C)c1ccc(/C=C/C(=O)NCCO)cc1", "assigned category": "interval 2"}
{"compound": "O=C(/C=C/c1cccc(F)c1)NCCO", "assigned category": "interval 3"}
{"compound": "O=C(/C=C/c1ccccc1Cl)NCCO", "assigned category": "interval 1"}
{"compound": "O=C(/C=C/c1ccc(F)cc1)NCCO", "assigned category": "interval 1"}
{"compound": "O=C(/C=C/c1ccccc1F)NCCO", "assigned category": "interval 3"}
{"compound": "O=C(/C=C/c1ccccc1Br)NCCO", "assigned category": "interval 2"}
